B1: EPB41L3 (parent)
chain: SDYISEFRFAPNHTKELEDKVIEL

Variants of: B1
method: protein stability index of a GFP-peptide fusion (GPS, HEK-293T) (PSI 1-6); higher = more stable;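 further: lentivirally expressed fusions sorted by FACS into six bins by GFP to DsRed ratio, PSI derived from sequencing read proportions per bin multiplied by bin number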
protocol conditions: c terminus: a fixed tail appended
measurement type: protein stability index
Give the value as a plain number.

Consider the following illustrative entries.
What value of measured protein stability index is listed for N12I ?
1.82

And the next one, P11N ?
2.26

And the next one, F9Q ?
4.63

And the next one, F9V ?
4.44

And the next one, E23G ?
1.72

More entries:
What value of measured protein stability index is listed for T14S ?
1.76

And the next one, I4M ?
3.18

And the next one, L17G ?
1.97

And the next one, S5P ?
2.24

And the next one, K20R ?
1.83
